- tgt: human 5-HT4b receptor (Homo sapiens)
- Construct: expressed in transfected cells; host or cells: CHO cells (G418 selection)
- experimental-protocol: Test Example 4: Serotonin 4 (5-HT4) receptor agonist activity assay, cAMP HTRF in CHO cells (Table 100)
- Type: cell-based
- experimental-parameters: concentration showing 50% of IA; mean value
Where a name gives a salt, the structure may show the parent alone.
Task for the reader: assign each of the following compounds its reported EC50.
One number for each entry, in nM.

Some solved entries appear below for comparison.
>>> reading("CCc1nn(-c2noc(C3CCN(CC4CN(C(=O)COC)C4)CC3)n2)c2c(F)cccc12 [Example 224, hydrochloride]")
6.7
>>> reading("CC(C)c1nn(-c2noc(C3CC(NC4CCOCC4)C3)n2)c2c(F)cccc12 (stereo not shown) [Example 595]")
6.9
>>> reading("CC(C)c1nn(-c2noc([C@H]3CC[C@@H](NCC4CCN(S(C)(=O)=O)CC4)CC3)n2)c2c(F)cccc12 [Example 618]")
6.2
>>> reading("COC(=O)N1CCC(CN2CCC(c3nc(-n4nc(C(C)C)c5ccc(F)c(F)c54)no3)CC2)CC1 [Example 482, trifluoroacetate]")
8.9
>>> reading("CC(=O)N1CCC[C@H]1CN1CC[C@@H](Cc2nc(-n3nc(C(C)C)c4cccc(F)c43)no2)C1 [Example 509]")
16.3
>>> reading("CCc1nn(-c2noc(C3CCN(C4CCCC4)CC3)n2)c2c(F)c(F)ccc12 [Example 447]")
12.2
>>> reading("CCc1nn(-c2noc(C3CCN(C4CCN(C(=O)COC)CC4)CC3)n2)c2c(F)cccc12 [Example 237, hydrochloride]")
9.7
>>> reading("CCc1nn(-c2noc(C3CCN(C(C)C)CC3)n2)c2c(F)c(F)ccc12 [Example 445, trifluoroacetate]")
13.2
>>> reading("CC(C)c1nn(-c2noc([C@H]3CC[C@@H](NC4CCN(S(C)(=O)=O)C4)CC3)n2)c2c(F)cccc12 (relative stereo) [Example 616]")
13

QUERY: State recorded EC50 with human 5-HT4b receptor (Homo sapiens), entry CC(=O)N1CCC(N2CCC(F)(c3nc(-n4nc(C(C)C)c5cccc(F)c54)no3)CC2)CC1 [Example 561] , no comment.
RESULT: 8.9

---

- tgt: 5-HT4 receptor (Cavia porcellus, UniProt O70528)
- Construct: striatum was isolated which was cryopreserved at −80° C. until use; from tissue; host or cells: guinea pig (Slc-Hartley) striatum membranes
- Sequence (O70528 whole entry): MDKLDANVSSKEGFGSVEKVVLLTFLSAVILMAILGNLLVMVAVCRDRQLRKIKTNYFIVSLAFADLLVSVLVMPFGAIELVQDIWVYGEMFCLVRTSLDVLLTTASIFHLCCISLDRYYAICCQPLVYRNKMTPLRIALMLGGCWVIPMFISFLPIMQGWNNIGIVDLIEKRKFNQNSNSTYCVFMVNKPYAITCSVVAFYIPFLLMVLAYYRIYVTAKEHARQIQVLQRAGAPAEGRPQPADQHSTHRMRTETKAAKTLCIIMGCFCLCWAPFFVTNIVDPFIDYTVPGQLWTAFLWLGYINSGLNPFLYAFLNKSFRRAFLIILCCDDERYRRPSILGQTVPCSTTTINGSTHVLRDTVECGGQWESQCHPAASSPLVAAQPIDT
- experimental-protocol: Test Example 3: Guinea pig 5-HT4 receptor binding assay, [3H]-GR113808, striatum membranes (Table 98)
- experimental-parameters: Guinea pig 5-HT4 receptor binding assay, [3H]-GR113808, striatum membranes; mean value of each group; read-out: IC50
pIC50: −log10 of the molar value. Where a name gives a salt, the structure may show the parent alone.
Would you mind telling me the reported pIC50 of each entry?

>>> reading("CC(C)c1nn(-c2noc(C3CCN(C4CCC4)C3)n2)c2c(F)cccc12 (stereo not drawn)")
"> 7.70"
>>> reading("CCc1nn(-c2noc(C3CCN(CC4CN(C(C)=O)C4)CC3)n2)c2c(F)c(F)ccc12 [Example 468, trifluoroacetate]")
"> 7.70"
>>> reading("CC(C)c1nn(-c2noc(C3CCN(C(C)(C)CO)CC3)n2)c2c(F)cccc12")
"> 7.70"

Please look at the items below and tell me pIC50 for each one, in order.
1. CC(C)c1nn(-c2noc(C3CCN(C4CCN(C(=O)CO)CC4C)CC3)n2)c2c(F)cccc12 (stereo not drawn)
2. CC(=O)N1CCC(N2CCC(c3nc(-n4nc(C(C)C)c5c(Cl)cccc54)no3)CC2)CC1

RESULT:
["> 7.70", 7.00]

Go through the list and state pIC50 for each entry.
1. COC(=O)N1CCOC(CN2CCC(c3nc(-n4nc(C(C)C)c5cccc(F)c54)no3)CC2)C1 (stereo not drawn)
2. CC(C)c1nn(-c2noc(C3CCN(C4CCC4)CC3)n2)c2ccccc12 [Example 420, trifluoroacetate]
3. CC(C)c1nn(-c2noc(C3CCN(CCC(=O)c4ccccc4)CC3)n2)c2c(F)cccc12
4. CC(=O)N1CCC(N2CCC(c3nc(-n4nc(C(C)C)c5cc(Cl)ccc54)no3)CC2)CC1
5. COCC(=O)N1CCC(N2CCC(c3nc(-n4nc(C(C)C)c5ccc(F)c(F)c54)no3)CC2)CC1 [Example 465, trifluoroacetate]
6. CC(=O)N1CCC(N2CCC(c3nc(-n4nc(C(C)C)c5ccc(F)c(F)c54)no3)CC2)CC1 [Example 464, trifluoroacetate]

RESULT:
1. 7.55
2. 7.13
3. > 7.70
4. 6.42
5. > 7.70
6. > 7.70

Here are 3 molecules. What values of pIC50 were reported for them?
1. CC(C)c1nn(-c2noc(C3CCN(C4CCN(S(C)(=O)=O)CC4)CC3)n2)c2c(F)cccc12 [Example 466, trifluoroacetate]
2. CC(C)c1nn(-c2noc(CCCN3CCCCC3)n2)c2c(F)cccc12
3. CCc1nn(-c2noc(C3CCN(C4CCN(C(C)=O)CC4)CC3)n2)c2c(F)c(F)ccc12 [Example 460, trifluoroacetate]

RESULT:
["> 7.70", "> 7.70", "> 7.70"]

For the 4 molecules below, give their pIC50 values.
1. COC(=O)CCCN1CCC(c2nc(-n3nc(C(C)C)c4cccc(F)c43)no2)CC1
2. CCc1nn(-c2noc(C3CCN(CC4CN(C(C)=O)C4)CC3)n2)c2c(F)cccc12 [Example 223, hydrochloride]
3. CC(=O)N1CCC(N2CCC(c3nc(-n4nc(C(C)C)c5cccc(F)c54)no3)C2)CC1 (stereo not drawn)
4. CCc1nn(-c2noc(C3CCN(CC4CCN(C(=O)CO)CC4)CC3)n2)c2c(F)cccc12

RESULT:
> 7.70
> 7.70
> 7.70
> 7.70

---

- tgt: 5-HT4 receptor (Cavia porcellus)
- Construct: striatum was isolated which was cryopreserved at −80° C. until use; from tissue; host or cells: guinea pig (Slc-Hartley) striatum membranes
- experimental-protocol: Test Example 3: Guinea pig 5-HT4 receptor binding assay, [3H]-GR113808, striatum membranes (Table 98)
- experimental-parameters: Guinea pig 5-HT4 receptor binding assay, [3H]-GR113808, striatum membranes; mean value of each group; read-out: IC50
Where a name gives a salt, the structure may show the parent alone.
Exercise: state measured IC50 for each of the compounds provided.

I need IC50 for every entry listed below, if you could help.
1. CCc1nn(-c2noc(C3CCN(C4CCC4)CC3)n2)c2cc(C)ccc12 [Example 434, trifluoroacetate]
2. COC(=O)N1CC(CN2CCC(c3nc(-n4nc(C(C)C)c5cccc(F)c54)no3)CC2)C1 [Example 220, hydrochloride]
3. CCc1nn(-c2noc(C3CCN(C[C@H]4CCN(C(=O)CO)C4)CC3)n2)c2c(F)cccc12

RESULT:
1. 20.8 nM
2. < 20 nM
3. < 20 nM

---

pIC50: −log10 of the molar value.
Human 5-HT4 receptor (5-HT4b) (Homo sapiens, UniProt Q13639): reported pIC50 for various molecules.
Sequence (Q13639 whole entry): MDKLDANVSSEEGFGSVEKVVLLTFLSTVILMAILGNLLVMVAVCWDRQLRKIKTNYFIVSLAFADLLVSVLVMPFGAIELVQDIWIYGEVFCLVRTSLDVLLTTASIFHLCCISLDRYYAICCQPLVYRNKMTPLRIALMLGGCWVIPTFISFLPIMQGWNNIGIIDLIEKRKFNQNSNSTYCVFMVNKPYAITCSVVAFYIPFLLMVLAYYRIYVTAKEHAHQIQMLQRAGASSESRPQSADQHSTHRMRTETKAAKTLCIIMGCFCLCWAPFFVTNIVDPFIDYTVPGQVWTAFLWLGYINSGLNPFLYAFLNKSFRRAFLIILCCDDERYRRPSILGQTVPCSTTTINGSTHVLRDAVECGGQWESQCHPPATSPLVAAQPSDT

Recorded results for 5 molecules are shown here.
>>> reading("CC(C)c1nn(-c2noc(C[C@H]3CCN(C4CCN(S(C)(=O)=O)CC4)C3)n2)c2c(F)cccc12")
"> 7.70"
>>> reading("CC(=O)N1CC[C@@H](CN2CC[C@@H](Cc3nc(-n4nc(C(C)C)c5cccc(F)c54)no3)C2)C1")
"> 7.70"
>>> reading("CC(C)c1nn(-c2noc(C[C@@H]3CCN(C[C@@H]4CCCN4C(=O)CO)C3)n2)c2c(F)cccc12")
"> 7.70"
>>> reading("CC(C)c1nn(-c2noc(C[C@@H]3CCN(C[C@H]4CCN(S(C)(=O)=O)C4)C3)n2)c2c(F)cccc12")
"> 7.70"
>>> reading("CC(=O)N1CCC(CN[C@H]2C[C@@H](c3nc(-n4nc(C(C)C)c5cccc(F)c54)no3)C2)CC1")
7.90

Take each entry in turn and give its pIC50.
1. CC(C)c1nn(-c2noc(C[C@@H]3CCN(C[C@@H]4CCN(S(C)(=O)=O)C4)C3)n2)c2c(F)cccc12
2. CC(C)c1nn(-c2noc(C[C@@H]3CCN(C[C@H]4CCCN4S(C)(=O)=O)C3)n2)c2c(F)cccc12
3. CC(C)c1nn(-c2noc(C[C@H]3CCN(C[C@@H]4CCCN4C(=O)CO)C3)n2)c2c(F)cccc12
4. CC(C)c1nn(-c2noc(C[C@@H]3CCN(C[C@@H]4CCN(C(=O)CO)C4)C3)n2)c2c(F)cccc12

RESULT:
["> 7.70", "> 7.70", 7.11, "> 7.70"]

---

- tgt: human 5-HT4b receptor (Homo sapiens, UniProt Q13639)
- Construct: expressed in transfected cells; host or cells: CHO cells (G418 selection)
- Sequence (Q13639 whole entry): as the sequence (Q13639 whole entry) above
- experimental-protocol: Test Example 4: Serotonin 4 (5-HT4) receptor agonist activity assay, cAMP HTRF in CHO cells (Table 100)
- Assay type: cell-based
- experimental-parameters: concentration showing 50% of IA; mean value
Structures can show the parent of a compound that is named as a salt.
Classification scheme (EC50): 1 = under 4 nM, 2 = from 4 nM up to 8 nM, 3 = 8 nM and over

Here are 5 molecules together with their reported answers.
>>> classification("CCc1nn(-c2noc(C3CCN(CC4CCOCC4)CC3)n2)c2cc(C)ccc12 [Example 435, trifluoroacetate]")
3
>>> classification("CC(C)c1nn(-c2noc(C3CCN(C(C)(C)CO)CC3)n2)c2c(F)cccc12 [Example 402]")
1
>>> classification("CCc1nn(-c2noc(C3CCN(C[C@@H]4CCCN4C(=O)CO)CC3)n2)c2c(F)cccc12 [Example 583]")
2
>>> classification("CC(C)c1nn(-c2noc(C[C@@H]3CCN(C4CCN(S(C)(=O)=O)CC4)C3)n2)c2c(F)cccc12 [Example 508]")
1
>>> classification("CC(C)c1nn(-c2noc(C[C@H]3CCN(C[C@H]4CCN(S(C)(=O)=O)C4)C3)n2)c2c(F)cccc12 [Example 506]")
1

QUERY: Bin? CC(C)c1nn(-c2noc(C[C@H]3CCN(C[C@@H]4CCCN4C(=O)CO)C3)n2)c2c(F)cccc12 [Example 540]
RESULT: 3

QUERY: Which bin, given its EC50, does CCc1nn(-c2noc(C3CCN(C4CCN(C(=O)OC)CC4)CC3)n2)c2c(F)c(F)ccc12 [Example 459, trifluoroacetate] occupy?
RESULT: 2

QUERY: For the record CC(C)c1nn(-c2noc(C[C@@H]3CCN(C4CCN(C(=O)CO)CC4)C3)n2)c2c(F)cccc12 [Example 545] , report the class its EC50 corresponds to.
RESULT: 2

QUERY: Note: place this molecule into its band. Item: CCc1nn(-c2noc(C3CCN(C4CCN(C(C)=O)CC4)CC3)n2)c2c(F)c(F)ccc12 [Example 460, trifluoroacetate]
RESULT: 2

Reference source for all entries: patent US20140057895A1
